Measured values drawn from patent US8178506B2 for this set.

Tested on: aP2
protocol: aP2 mRNA expression in adipocytes (real-time PCR)
Type: cell-based, human
assay-context: Table 18; differentiating adipocytes; control = treatment with ISIS 342673
Experimental: Expression of the four hallmark genes, HSL, aP2, Glut4, and PPARγ, is also measured in adipocytes transfected with oligomeric compounds of the invention. Cells are lysed on day nine post-transfection and total RNA is harvested. The amount of total RNA in each sample is determined using a Ribogreen Assay (Invitrogen Life Technologies, Carlsbad, Calif.). […]
In the oligonucleotide strings, read from the 5' end, every base follows the letter of its sugar. An asterisk marks phosphorothioate; unmarked linkages are phosphodiester. Other units and linkages are bracketed, terminal groups are in braces. A string of capitals states the bases alone. e = 2'-O-(2-methoxyethyl) (MOE); [5mC] = 5-methylcytosine
measure: AP2 mRNA

See these solved cases before continuing.
328107 (antisense e[5mC]*eT*eG*eT*eG*eA*e[5mC]*eT*eT*e[5mC]*eT*e[5mC]*eT*eA*eT*e[5mC]*eT*eG*e[5mC]*e[5mC]*eT) [compound 328107] | 67.5 percentage of control
328112 (antisense eA*eT*e[5mC]*eA*eT*eT*eA*e[5mC]*eT*eG*eG*eA*eT*eT*eG*e[5mC]*eT*eG*eT*eA*eA) [compound 328112] | 99.1 percentage of control
328104 (antisense eT*eA*eT*eG*eA*eT*eA*eG*e[5mC]*eT*eT*e[5mC]*e[5mC]*e[5mC]*e[5mC]*eA*eT*eG*eT*eA*eA) [compound 328104] | 102.2 percentage of control
341804 (antisense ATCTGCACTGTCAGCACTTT; all 2'-MOE, all phosphorothioate, methylation of C not given here) [compound 341804] | 70.8 percentage of control

Turning to the following substance.
Item: 328101 (antisense eA*eA*eA*e[5mC]*e[5mC]*e[5mC]*e[5mC]*eT*eA*eT*e[5mC]*eA*e[5mC]*eG*eA*eT*eT*eA*eG*e[5mC]*eA) [compound 328101] Test system: aP2 Read-out: AP2 mRNA Value: ?
83.2 percentage of control

###

System: Glut4
protocol: Glut4 mRNA expression in adipocytes (real-time PCR)
Type: cell-based, human
assay-context: adipocytes, 250 nM oligomeric compound, day nine post-transfection, relative to control (1.0); Table 15
In the oligonucleotide strings, read from the 5' end, every base follows the letter of its sugar. An asterisk marks phosphorothioate; unmarked linkages are phosphodiester. Other units and linkages are bracketed, terminal groups are in braces. A string of capitals states the bases alone. e = 2'-O-(2-methoxyethyl) (MOE); [5mC] = 5-methylcytosine
measure: Glut4 (mRNA expression)

327892 (antisense eA*e[5mC]*eT*eT*eT*e[5mC]*eG*eG*eT*eT*eA*eT*e[5mC]*eT*eA*eG*e[5mC]*eT*eT*eT*eA) [compound 327892] | 0.07

Requested field: Glut4 (mRNA expression). Item: 327919 (antisense eG*eA*eA*eA*e[5mC]*e[5mC]*e[5mC]*eA*eG*e[5mC]*eA*eG*eA*e[5mC]*eA*eA*eT*eG*eT*eA*eG*e[5mC]*eT) [compound 327919]
0.32

Give its Glut4 (mRNA expression) value. Item: 327888 (antisense eA*eA*eT*eG*e[5mC]*e[5mC]*e[5mC]*e[5mC]*eT*eA*eA*eA*eA*eA*eT*e[5mC]*e[5mC]*eT*eT*eA*eT) [compound 327888]
1.37

###

# PEPCK-c (% UTC) annotations
System: PEPCK-c
protocol: PEPCK-c mRNA expression in HepG2 cells
Type: cell-based, human
assay-context: Experiment 2, 1 nM insulin treated; HepG2; 100 nM oligomeric compound
In the oligonucleotide strings, read from the 5' end, every base follows the letter of its sugar. An asterisk marks phosphorothioate; unmarked linkages are phosphodiester. Other units and linkages are bracketed, terminal groups are in braces. A string of capitals states the bases alone. e = 2'-O-(2-methoxyethyl) (MOE); [5mC] = 5-methylcytosine
Answer with a number only, understood to be in % UTC.

// returns reported PEPCK-c (% UTC) for input 327913 (antisense eA*eA*e[5mC]*e[5mC]*eG*eA*eT*eT*eT*e[5mC]*eA*eA*eA*eT*eG*eG*eT*eG*e[5mC]*eT*eA*eG) [compound 327913]
268

###

Test system: HeLa cells
protocol: Cell cycle assay in HeLa cells
Format: cell-based, human
assay-context: HeLa cells, 150 nM oligomeric compound, 48 hours after treatment; relative to untreated control (UTC=100)
In the oligonucleotide strings, read from the 5' end, every base follows the letter of its sugar. An asterisk marks phosphorothioate; unmarked linkages are phosphodiester. Other units and linkages are bracketed, terminal groups are in braces. A string of capitals states the bases alone. e = 2'-O-(2-methoxyethyl) (MOE); [5mC] = 5-methylcytosine; d = 2'-deoxy (DNA)
In this section we review reported % cells in cell cycle phase: G1 values for a set of substances.
Please reply with the bare figure in % and do not write the unit itself.

Please look up its % cells in cell cycle phase: G1: 338637 (antisense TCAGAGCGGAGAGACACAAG; all 2'-MOE, all phosphorothioate, methylation of C not given here) [compound 338637]
90

Which % cells in cell cycle phase: G1 reading was recorded for the substance 328727 (antisense e[5mC]*eT*eG*e[5mC]*eT*d[5mC]*d[5mC]*dA*dG*dA*dG*d[5mC]*d[5mC]*d[5mC]*dG*eA*eG*eT*e[5mC]*eG) [compound 328727] ?
68

% cells in cell cycle phase: G1 lookup needed for 328342 (e[5mC]*eA*eA*eT*eT*dG*d[5mC]*dG*d[5mC]*dT*dA*d[5mC]*dA*dG*dA*eA*e[5mC]*eT*eG*eT) [compound 328342] , thanks.
55

# input substance: 327922 (antisense eT*e[5mC]*eA*eG*eT*eT*eT*eT*eG*e[5mC]*eA*eT*eG*eG*eA*eT*eT*eT*eG*e[5mC]*eA*e[5mC]*eA) [compound 327922] ; wanted: its % cells in cell cycle phase: G1
96

Reported % cells in cell cycle phase: G1, substance 327903 (antisense eA*eA*e[5mC]*eT*eA*eT*eA*e[5mC]*eA*eA*e[5mC]*e[5mC]*eT*eA*e[5mC]*eT*eA*e[5mC]*e[5mC]*eT*e[5mC]*eA) [compound 327903] : ____
102

###

Tested on: aP2
protocol: aP2 mRNA expression in adipocytes (real-time PCR)
Format: cell-based, human
assay-context: differentiating adipocytes transfected with oligomeric compound; Table 75
Method: Expression of the four hallmark genes, HSL, aP2, Glut4, and PPARγ, is also measured in adipocytes transfected with oligomeric compounds of the invention. Cells are lysed on day nine post-transfection and total RNA is harvested. The amount of total RNA in each sample is determined using a Ribogreen Assay (Invitrogen Life Technologies, Carlsbad, Calif.). […]
In the oligonucleotide strings, read from the 5' end, every base follows the letter of its sugar. An asterisk marks phosphorothioate; unmarked linkages are phosphodiester. Other units and linkages are bracketed, terminal groups are in braces. A string of capitals states the bases alone. e = 2'-O-(2-methoxyethyl) (MOE); [5mC] = 5-methylcytosine
measure: aP2 mRNA

346910 (GCAAUCAGCUAACUACACUGCCU; all 2'-MOE, all phosphorothioate, methylation of C and T or U not given here) [compound 346910] | 78 percentage of untreated control (UTC)
346913 (AGAAAGGCAGCAGGUCGUAUAG; all 2'-MOE, all phosphorothioate, methylation of C and T or U not given here) [compound 346913] | 66 percentage of untreated control (UTC)

Query substance follows.
Please look up its aP2 mRNA: 327881 (antisense eA*eA*eA*eA*eG*eA*eG*eA*e[5mC]*e[5mC]*eG*eG*eT*eT*e[5mC]*eA*e[5mC]*eT*eG*eT*eG*eA) [compound 327881]
95 percentage of untreated control (UTC)

###

The reader will find reported % cells in cell cycle phase: G2/M values listed item by item below.
Tested on: HeLa cells
protocol: Cell cycle assay in HeLa cells
Assay type: cell-based, human
assay-context: HeLa cells, 100 nM, 48 hours
In the oligonucleotide strings, read from the 5' end, every base follows the letter of its sugar. An asterisk marks phosphorothioate; unmarked linkages are phosphodiester. Other units and linkages are bracketed, terminal groups are in braces. A string of capitals states the bases alone. e = 2'-O-(2-methoxyethyl) (MOE); [5mC] = 5-methylcytosine; d = 2'-deoxy (DNA)

328403 (antisense eA*eG*eG*e[5mC]*e[5mC]*dT*dA*dT*dT*d[5mC]*d[5mC]*dT*dG*dT*dA*eG*e[5mC]*eA*eA*eA) [compound 328403] | 23%
328383 (eA*eG*eA*eG*eG*dG*dG*dA*dG*dA*d[5mC]*dG*dA*dG*dA*eG*e[5mC]*eA*e[5mC]*eT) [compound 328383] | 30%
327902 (antisense eG*eG*e[5mC]*eT*eG*eT*e[5mC]*eA*eA*eT*eT*e[5mC]*eA*eT*eA*eG*eG*eT*e[5mC]*eA*eG) [compound 327902] | 27%

Now for the substance whose % cells in cell cycle phase: G2/M we want.
Reported % cells in cell cycle phase: G2/M, substance 327905 (antisense e[5mC]*eA*eG*eA*e[5mC]*eT*e[5mC]*e[5mC]*eG*eG*eT*eG*eG*eA*eA*eT*eG*eA*eA*eG*eG*eA) [compound 327905] : ____
24%
